List of cleaved RNA product abundance values.
# System: Bacillus subtilis
# Measurement description: cleaved RNA product abundance (RNA/gDNA barcode ratio) relative to median wild-type variant (ratio to wild type); higher = more accumulation of the downstream cleavage product
# Condition info: experiment (reporter, strain, medium): exp 4a: truncated aprE reporter, strain BJT201 with 2% xylose (RNase J1 expressed); cleavage site: cggR-gapA (positions -7 to +36 mutated)
Answer with the value's number alone.

ACAGACGAAGGAGCCGCAAAGAAGTTATTAAGGGATGAATTATTCCTCAATATAAATATCTCTCACTTATTTAAA :: 0.215
ACAGACGAAGGAGCCGCAAAGAACTTATTAAGGGATAAATAATCCCTCAATATAAATATCTCTCACTTATTTAAA :: 0.477
ACAGACGAAGGAGCCGCAAAGAAGTTCTTAAGGAATGAATAATCCCTCAATATAAATATCTCTCACTTATTTAAA :: 0.133

Attention now shifts to the item below.
Summary line: ACAGACGAAGGAGCCGCAAAGAAGATATTAAGAGATGAATAATCCCTCAATATAAATATCTCTCACTTATTTAAA , Bacillus subtilis, reported cleaved RNA product abundance = 0.221
